Data credit: PubChem BioAssay AID1851

Target: Cytochrome P450 2C9 (Homo sapiens) (UniProt P11712)
Sequence (P11712 whole entry, looked up): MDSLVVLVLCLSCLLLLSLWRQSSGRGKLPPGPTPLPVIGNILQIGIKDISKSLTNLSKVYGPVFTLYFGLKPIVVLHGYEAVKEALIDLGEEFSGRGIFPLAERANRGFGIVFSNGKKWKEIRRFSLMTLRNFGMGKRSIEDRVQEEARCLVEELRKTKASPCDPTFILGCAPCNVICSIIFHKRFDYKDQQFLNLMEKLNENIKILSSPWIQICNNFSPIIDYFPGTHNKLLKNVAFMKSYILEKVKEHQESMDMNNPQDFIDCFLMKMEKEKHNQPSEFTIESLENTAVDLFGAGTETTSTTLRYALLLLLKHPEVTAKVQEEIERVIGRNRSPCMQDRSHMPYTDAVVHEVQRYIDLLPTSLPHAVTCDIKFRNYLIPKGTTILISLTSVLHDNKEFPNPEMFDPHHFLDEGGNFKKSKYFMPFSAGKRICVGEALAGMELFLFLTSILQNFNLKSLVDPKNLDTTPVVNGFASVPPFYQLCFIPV
Test: Cytochrome panel assay with activity outcomes
Conditions: recombinant CYP, pro-luciferin dealkylation, luminescence, p450-cyp2c9; series mostly up to 57.1 µM
Among all 16,000 compounds or so, about 4,000 (25%) were called active. Roughly 26% stayed inconclusive and do not appear here. Calls follow the shape of the dose curve; as a rule, active = well fitted curve in the direction sought with a large enough effect; inconclusive = small, poorly fitted or top-dose-only effect, or effect the other way; inactive = no such curve, though single readings can be large or run the other way. Only a sample is shown.
Lab note: assign the record to one of 1 = active, 0 = inactive

CC1(C)O[C@@H]2C[C@H]3[C@H]4C[C@H](F)C5=CC(=O)CC[C@]5(C)[C@@H]4[C@H](O)C[C@]3(C)[C@]2(C(=O)CO)O1 :: 0
CCCCC#Cc1ccccc1CC(=O)Nc1ccccc1 :: 1
O=c1c(-c2ccc(Cl)cc2)nc2cnc(N3CCOCC3)nc2n1C1CC1 :: 0
N#Cc1cccc(-c2nc3cnc(N4CCNCC4)nc3n(C3CC3)c2=O)c1 :: 1
O=c1c(-c2ccc(F)cc2)nc2cnc(N3CCNCC3)nc2n1C1CC1 :: 1
c1ccc2c(c1)ncn2Cc1nnc2sc(-c3ccc4c(c3)OCO4)nn12 :: 1

Just curious, what result did CCNc1ncc2nc(-c3ccc(Cl)cc3)c(=O)n(Cc3cccc(OC)c3)c2n1 get here?
0

Just curious, what result did COc1ccc(C(=O)N2CCC3(CCN(Cc4cc(C(F)(F)F)cc(C(F)(F)F)c4)CC3)CC2)cc1 get here?
0

Just curious, what result did CCn1c2ccccc2c2cc(N=C3SC(CC(=O)Nc4ccccc4)C(=O)N3C)ccc21 (configuration not stated) get here?
1

Just curious, what result did CN(C(=O)c1cnc(N2CCN(c3ncccn3)CC2)c2ccccc12)c1ccc(Cl)cc1 get here?
1

Just curious, what result did C#CCCCC(=O)Nc1ccccc1 get here?
0

Just curious, what result did CC(=O)OCC(=O)[C@@]1(OC(C)=O)[C@H](C)C[C@H]2[C@@H]3C[C@H](F)C4=CC(=O)C=C[C@@]4(C)[C@]3(F)[C@H](O)C[C@@]21C get here?
0

====

Target: Cytochrome P450 2C9 (Homo sapiens) (UniProt P11712)
Test: Cytochrome panel assay with activity outcomes
Settings: recombinant CYP, pro-luciferin dealkylation, luminescence, p450-cyp2c9; series mostly up to 57.1 µM
Out of some 16,000 compounds screened, about 4,000 (25%) were called active. Not shown: some 26% with an inconclusive outcome. Calls follow the shape of the dose curve; as a rule, active = well fitted curve in the direction sought with a large enough effect; inconclusive = small, poorly fitted or top-dose-only effect, or effect the other way; inactive = no such curve, though single readings can be large or run the other way. Not all results are given here.
Lab note: assign the record to one of active, inactive

Cc1cc(NC(=O)c2c([N+](=O)[O-])c(C)nn2C)no1 :: inactive
Cc1ccccc1/C=C1\OC(=O)c2ccccc21 :: inactive
COC(=O)[C@@]1(Cc2ccccc2)[C@H]2c3cc(C(=O)N4CCCC4)n(CC4CC4)c3C[C@H]2CN1C(=O)c1ccccc1 :: active
Cc1ccc(C(=O)NCCNc2ccc(Cl)cc2[N+](=O)[O-])o1 :: active

Just curious, what result did O=C(O)C1=CCNCC1 get here?
inactive

Just curious, what result did CCN(CC)C(=O)C1=C(C)NC(=S)NC1c1cn(-c2ccccc2)nc1-c1ccc(Cl)cc1 (configuration not stated) get here?
inactive

Just curious, what result did CCOC(=O)C1CCN(C(=O)c2ccccc2NC(C)=O)CC1 get here?
inactive

====

Biological target: Cytochrome P450 2C9 (Homo sapiens) (UniProt P11712)
Assay: Cytochrome panel assay with activity outcomes
Details: recombinant CYP, pro-luciferin dealkylation, luminescence, p450-cyp2c9; series mostly up to 57.1 µM
Out of some 16,000 compounds screened, about 4,000 (25%) were called active. Roughly 26% stayed inconclusive and do not appear here. Calls come from the whole dose curve; as a rule, active = well fitted curve in the direction sought with a large enough effect; inconclusive = small, poorly fitted or top-dose-only effect, or effect the other way; inactive = no such curve, though single readings can be large or run the other way. Not all results are given here.
Lab note: assign the record to one of active, inactive

COC(=O)N1CCC2(CC1)CN(c1ccc(-c3ccccc3)cc1)C2 :: inactive
c1cnc(N2CCN(Cc3ccc4c(c3)OCO4)CC2)nc1 :: inactive
C#CC[N+](CC)(CC)CC#Cc1cccc(Cl)c1 :: inactive
Cn1cccc1C(=O)N1CCC2(CC1)CCN(c1ccccc1)CC2 :: inactive
Cn1cccc1C(=O)N1CCC2(CC1)CCN(c1ccncc1)CC2 :: inactive

Could you now consider this next compound?
Just curious, what result did Cn1cccc1C(=O)N1CCC2(CCCN(c3ccccc3)C2)CC1 get here?
active

====

Biological target: Cytochrome P450 2C9 (Homo sapiens)
Assay: Cytochrome panel assay with activity outcomes
Conditions: recombinant CYP, pro-luciferin dealkylation, luminescence, p450-cyp2c9; series mostly up to 57.1 µM
About 4,000 (25%) of roughly 16,000 compounds were called active. Not shown: some 26% with an inconclusive outcome. Calls come from the whole dose curve; as a rule, active = well fitted curve in the direction sought with a large enough effect; inconclusive = small, poorly fitted or top-dose-only effect, or effect the other way; inactive = no such curve, though single readings can be large or run the other way. A selection follows.
Lab note: assign the record to one of 1.0 (active), 0.0 (inactive)

Consider the worked cases shown below.
CCOc1ccc(-n2c(SCC(=O)Nc3ccc(OC)cc3OC)nc3c(c2=O)SCC3)cc1 :: 1.0
C=CCN(CC=C)C(=S)Nc1ccccc1 :: 0.0
CCCCCn1c(CN2CCCCC2C)nc2c1c(=O)n(C)c(=O)n2C (stereo not drawn) :: 1.0

Just curious, what result did CC1=CC(=O)N(c2cccc(C(F)(F)F)c2)C1c1ccc(Cl)cc1 (stereo not drawn) get here?
1.0

Just curious, what result did COc1cccc(OC)c1C(=O)Nc1cc(C)on1 get here?
0.0

Just curious, what result did CC(C)c1ccc(CN(C(=O)C2COc3ccccc3O2)C2CCS(=O)(=O)C2)cc1 (stereo not drawn) get here?
1.0

Just curious, what result did COc1cc(NC(=O)c2cc3nc(-c4ccccc4)cc(-c4ccccc4)n3n2)cc(OC)c1OC get here?
1.0

Just curious, what result did N#Cc1cccc(NC(=O)N2CCCC3(CCN(C(=O)c4csnn4)CC3)C2)c1 get here?
0.0

Just curious, what result did Cc1cc(NC(=O)c2ccc(S(=O)(=O)Nc3ccccc3)cc2)no1 get here?
1.0

Just curious, what result did COc1ccc(-c2nc(-c3cccc(C)c3)nc(N3CCN(C)CC3)c2C#N)cc1 get here?
1.0

Just curious, what result did COC(=O)N1CCC2(CC1)CN(c1ccccc1)C2 get here?
0.0

====

Target: Cytochrome P450 2C9 (Homo sapiens)
Assay: Cytochrome panel assay with activity outcomes
Settings: recombinant CYP, pro-luciferin dealkylation, luminescence, p450-cyp2c9; series mostly up to 57.1 µM
The whole screen tested about 16,000 compounds, of which about 4,000 (25%) were called active. Roughly 26% stayed inconclusive and do not appear here. Calls follow the shape of the dose curve; as a rule, active = well fitted curve in the direction sought with a large enough effect; inconclusive = small, poorly fitted or top-dose-only effect, or effect the other way; inactive = no such curve, though single readings can be large or run the other way. Not all results are given here.
Lab note: assign the record to one of 1 for active, -1 for inactive

Consider the worked cases shown below.
Cc1cccc(NC(=O)CSc2nnnn2C)n1 :: -1
CC(C)C(=O)NCCc1nc2ccccc2n1CCCOc1ccc(Cl)cc1 :: 1

Just curious, what result did CN1CC[C@@]2(CCCN(C(=O)c3cccc(F)c3)C2)C1 get here?
-1

Just curious, what result did Cc1ccc(N(C(=O)C(F)(F)F)C(C(=O)NC2CCCCC2)c2cccs2)cc1C (centres undefined) get here?
-1

Just curious, what result did COc1ccc(C(C(=O)NC2CCCC2)N(Cc2ccc(F)cc2)C(=O)c2ccn[nH]2)cc1OC (centres undefined) get here?
-1

Just curious, what result did COc1ccc(-c2nc3cnc(N4CCN(C)CC4)nc3n(CCc3ccccc3)c2=O)cc1 get here?
-1

====

Molecular target: Cytochrome P450 2C9 (Homo sapiens)
Assay: Cytochrome panel assay with activity outcomes
Conditions: recombinant CYP, pro-luciferin dealkylation, luminescence, p450-cyp2c9; series mostly up to 57.1 µM
Screen size: about 16,000 compounds; about 4,000 (25%) were called active. About 26% were inconclusive and are not listed. Calls follow the shape of the dose curve; as a rule, active = well fitted curve in the direction sought with a large enough effect; inconclusive = small, poorly fitted or top-dose-only effect, or effect the other way; inactive = no such curve, though single readings can be large or run the other way. Only a sample is shown.
Lab note: assign the record to one of TRUE = active, FALSE = inactive

Consider the worked cases shown below.
CN1CCc2c(c3ccccc3n2C)C1 :: FALSE
CCOC(=O)C(NC(C)=O)C(=O)O (stereo not given) :: FALSE
COc1cc(=O)n(C)c2c(OC[C@@H](O)C(C)(C)O)cccc12 :: FALSE
COc1ccc(-c2ccc(C(=S)N3CCN(C(C)=O)CC3)o2)cc1 :: TRUE
COCCn1c(=O)cnc2cnc(Oc3ccc(OC)cc3)nc21 :: FALSE

Just curious, what result did CCN(C(=O)COc1cc(=O)n(C)c2ccccc12)c1cccc(Cl)c1 get here?
TRUE

Just curious, what result did COc1ccc(C(=O)CN2C(=O)NC(C)(c3ccccc3)C2=O)cc1OC (stereo not given) get here?
TRUE

Just curious, what result did COc1ncc2nc(-c3cc(F)cc(F)c3)c(=O)n(-c3ccccc3)c2n1 get here?
FALSE

Just curious, what result did O=C(O)c1ccccc1OP(=O)(O)O get here?
FALSE

Just curious, what result did CN(Cc1ccccc1)c1nc(-c2ccc([N+](=O)[O-])cc2)nc2ccccc12 get here?
TRUE

====

Target: Cytochrome P450 2C9 (Homo sapiens)
Assay: Cytochrome panel assay with activity outcomes
Details: recombinant CYP, pro-luciferin dealkylation, luminescence, p450-cyp2c9; series mostly up to 57.1 µM
The campaign covered roughly 16,000 compounds. About 4,000 (25%) were called active. Not shown: some 26% with an inconclusive outcome. A selection follows.
PARAMETER: AC50

Examples with their reported AC50 follow.
Nc1nonc1-n1nncc1-c1ccccc1 :: inactive
O=S(=O)(C=C(c1ccccc1)c1ccccc1)c1ccccc1 :: 7.08 µM (active)
O=C(C1CCC(=O)N1Cc1ccccc1Cl)N1CCN(c2cccc(Cl)c2)CC1 (centres undefined) :: 15.8 µM (active)
CN(C)c1ncc2nc(CCc3ccccc3)c(=O)n(-c3ccccc3)c2n1 :: 12.6 µM (active)
O=S(=O)(/N=C(/Nc1ccccn1)c1ccccc1)c1ccccc1 :: inactive

GET /values?readout=AC50&item= CN(C)c1ncc2nc(-c3ccccc3)c(=O)n(C)c2n1
10 µM (active)

GET /values?readout=AC50&item= COCCCNC(=O)C1CCC(=O)N1Cc1ccccc1Cl (centres undefined)
5.62 µM (active)

GET /values?readout=AC50&item= Cn1c(C(=O)O)c(CC(=O)NCc2cccnc2)c2ccccc21
3.55 µM (active)

GET /values?readout=AC50&item= CC(C)OP(=O)(OC(C)C)C(NC(=O)c1ccc(Br)cc1)c1ccccc1 (centres undefined)
10 µM (active)

GET /values?readout=AC50&item= CCC(C)(C)n1nnnc1C(c1ccc(C)cc1)N1CCC(C)CC1 (centres undefined)
28.2 µM (active)
